Where these numbers come from: patent US9557338B2

Test system: Phospho-p70S6K (T389)
Experiment: MSD assay, phospho-p70S6K (T389) in cell lysates
Type: cell-based
Settings: HCT116 cell line; IGF; read-out: MSD p70S6K (IGF)
Measured parameter: IC50 (nM)
Numbers only, in nM.

Query string: I'd like to know its IC50. The compound in question is CO[C@H]1CC[C@H](N2C(=O)CNc3ncc(-c4ccc(-c5nnc[nH]5)nc4C)nc32)CC1
Result string: 157

====

Tested on: Akt(T308)
Test: Inhibition of Akt(T308) phosphorylation in cell lines
Format: cell-based
Details: U-87 MG; read-out: p-Akt(T308)
Measured parameter: IC50
Please answer using the number first and the unit second.

Query string: Give its IC50 value. Item: CO[C@H]1CC[C@H](N2C(=O)CNc3ncc(-c4ccc(C(C)(C)O)nc4)nc32)CC1
Result string: 260 nM
